Each recorded value in this set is attributed to patent US20230073777A1.

system: P300 (Homo sapiens, UniProt Q09472)
Sequence (Q09472 whole entry): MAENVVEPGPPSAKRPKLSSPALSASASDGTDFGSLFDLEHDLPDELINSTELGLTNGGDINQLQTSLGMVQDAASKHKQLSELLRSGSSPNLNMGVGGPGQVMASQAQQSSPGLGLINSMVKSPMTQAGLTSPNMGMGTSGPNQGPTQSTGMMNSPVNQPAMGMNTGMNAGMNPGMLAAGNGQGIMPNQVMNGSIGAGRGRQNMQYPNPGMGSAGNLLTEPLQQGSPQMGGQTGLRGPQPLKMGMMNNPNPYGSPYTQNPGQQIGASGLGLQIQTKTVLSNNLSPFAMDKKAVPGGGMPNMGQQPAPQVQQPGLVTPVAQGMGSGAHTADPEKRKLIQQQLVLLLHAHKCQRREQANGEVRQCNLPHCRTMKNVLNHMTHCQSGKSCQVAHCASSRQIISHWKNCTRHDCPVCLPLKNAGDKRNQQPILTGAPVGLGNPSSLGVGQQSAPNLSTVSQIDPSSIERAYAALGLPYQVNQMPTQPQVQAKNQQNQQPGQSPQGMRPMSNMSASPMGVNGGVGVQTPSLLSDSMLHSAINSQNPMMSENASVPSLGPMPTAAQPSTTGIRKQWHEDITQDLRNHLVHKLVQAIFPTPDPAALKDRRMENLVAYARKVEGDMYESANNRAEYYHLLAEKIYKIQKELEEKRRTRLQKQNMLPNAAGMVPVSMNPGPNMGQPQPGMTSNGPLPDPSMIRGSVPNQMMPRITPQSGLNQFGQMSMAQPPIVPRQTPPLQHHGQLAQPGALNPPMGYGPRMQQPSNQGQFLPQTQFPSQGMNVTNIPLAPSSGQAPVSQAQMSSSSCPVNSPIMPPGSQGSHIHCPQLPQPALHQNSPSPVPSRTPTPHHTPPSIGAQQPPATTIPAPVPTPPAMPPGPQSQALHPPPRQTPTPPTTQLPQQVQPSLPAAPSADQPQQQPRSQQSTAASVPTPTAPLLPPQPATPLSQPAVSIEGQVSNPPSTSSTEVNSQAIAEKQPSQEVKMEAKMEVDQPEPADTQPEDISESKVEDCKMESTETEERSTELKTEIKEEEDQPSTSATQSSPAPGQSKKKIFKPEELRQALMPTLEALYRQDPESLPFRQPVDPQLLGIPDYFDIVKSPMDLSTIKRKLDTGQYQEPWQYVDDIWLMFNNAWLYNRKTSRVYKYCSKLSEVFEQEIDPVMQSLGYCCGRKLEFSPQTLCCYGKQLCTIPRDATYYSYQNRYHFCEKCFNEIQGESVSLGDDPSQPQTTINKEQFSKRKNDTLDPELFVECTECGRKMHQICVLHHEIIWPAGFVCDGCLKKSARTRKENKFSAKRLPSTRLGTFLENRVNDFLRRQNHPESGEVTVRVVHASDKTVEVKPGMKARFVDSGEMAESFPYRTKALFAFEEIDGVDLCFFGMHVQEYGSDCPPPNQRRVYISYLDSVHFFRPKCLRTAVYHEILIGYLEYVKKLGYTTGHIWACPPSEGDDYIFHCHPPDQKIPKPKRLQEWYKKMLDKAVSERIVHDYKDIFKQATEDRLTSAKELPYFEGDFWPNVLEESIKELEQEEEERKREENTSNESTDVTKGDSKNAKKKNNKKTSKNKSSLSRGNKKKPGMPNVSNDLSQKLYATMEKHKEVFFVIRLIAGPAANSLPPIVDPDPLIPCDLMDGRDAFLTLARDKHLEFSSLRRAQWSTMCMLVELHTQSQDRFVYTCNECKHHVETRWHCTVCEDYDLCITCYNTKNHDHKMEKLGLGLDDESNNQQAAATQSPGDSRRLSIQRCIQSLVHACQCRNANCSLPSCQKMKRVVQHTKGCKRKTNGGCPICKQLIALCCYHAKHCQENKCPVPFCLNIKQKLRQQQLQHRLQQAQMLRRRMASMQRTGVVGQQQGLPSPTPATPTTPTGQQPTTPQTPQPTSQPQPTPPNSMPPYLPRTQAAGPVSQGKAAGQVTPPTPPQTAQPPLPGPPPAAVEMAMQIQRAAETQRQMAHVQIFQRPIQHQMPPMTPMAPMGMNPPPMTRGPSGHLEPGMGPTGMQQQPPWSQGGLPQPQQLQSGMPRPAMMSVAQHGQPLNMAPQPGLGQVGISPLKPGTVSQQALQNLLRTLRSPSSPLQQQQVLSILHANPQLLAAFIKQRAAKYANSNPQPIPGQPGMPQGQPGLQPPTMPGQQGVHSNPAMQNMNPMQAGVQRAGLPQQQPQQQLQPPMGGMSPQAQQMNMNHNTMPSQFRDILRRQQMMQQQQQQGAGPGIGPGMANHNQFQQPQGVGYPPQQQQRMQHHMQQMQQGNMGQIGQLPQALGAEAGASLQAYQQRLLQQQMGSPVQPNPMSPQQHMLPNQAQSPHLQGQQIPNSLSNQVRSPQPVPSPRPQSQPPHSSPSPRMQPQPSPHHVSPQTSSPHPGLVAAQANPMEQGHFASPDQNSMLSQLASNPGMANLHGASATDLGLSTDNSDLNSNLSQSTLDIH
test.description: Immunoblotting of P300 protein levels in LNCaP or 22RV1 cells
Type: cell-based
Parameters: LNCaP or 22RV1 cells that express CBP/P300 proteins were treated with GNE-781 or the bivalent compounds; endogenous in cells; host or cells: LNCaP (clone FGC) or 22RV1 cells
particulars: percentage of inhibition of p300 at 10 nM (Table 3); read-out: Degradation (10 nM)
outcome.measure: inhibition at 0.01 µM

Sample answers from the record:
CC(=O)N1CCc2c(c(N3CCCc4cc(-c5cnn(C)c5)c(C(F)F)cc43)nn2C2CCN(C(=O)CCCCCCNc3cccc4nc(C)n(C5CCC(=O)NC5=O)c(=O)c34)CC2)C1 (stereo not shown) [P-152] | < 20%
CNC(=O)N1CCc2c(c(N3CCCc4cc(-c5cnn(CC(=O)NCCOCC(=O)N[C@H](C(=O)N6C[C@H](O)C[C@H]6C(=O)NCc6ccc(-c7scnc7C)cc6)C(C)(C)C)c5)c(C(F)F)cc43)nn2C2CCOCC2)C1 [P-073] | < 20%
CNC(=O)N1CCc2c(c(N3CCCc4cc(-c5cnn(C)c5)c(C(F)F)cc43)nn2C2CCN(C(=O)CCC(=O)N[C@H](C(=O)N3C[C@H](O)C[C@H]3C(=O)NCc3ccc(-c4scnc4C)cc3)C(C)(C)C)CC2)C1 [P-056] | < 20%
CNC(=O)N1CCc2c(c(N3CCCc4cc(-c5cnn(CC(=O)NCCOCCOCCOCC(=O)N[C@H](C(=O)N6C[C@H](O)C[C@H]6C(=O)NCc6ccc(-c7scnc7C)cc6)C(C)(C)C)c5)c(C(F)F)cc43)nn2C2CCOCC2)C1 [P-076] | < 20%

**Q:** Please report the recorded inhibition at 0.01 µM for CNC(=O)N1CCc2c(c(N3CCCc4cc(-c5cnn(C)c5)c(C(F)F)cc43)nn2C2CCN(C(=O)CN3CCC(CCc4cccc5c4C(=O)N(C4CCC(=O)NC4=O)C5=O)CC3)CC2)C1 (stereo not shown) [P-104] .
**A:** > 80%

**Q:** Please report the recorded inhibition at 0.01 µM for CC(=O)N1CCc2c(c(N3CCCc4cc(-c5cnn(C)c5)c(C(F)F)cc43)nn2C2CCN(CC3CCN(CCCc4cccc5c4C(=O)N(C4CCC(=O)NC4=O)C5=O)CC3)CC2)C1 (stereo not shown) [P-149] .
**A:** > 80%

**Q:** Please report the recorded inhibition at 0.01 µM for CC(=O)N1CCc2c(c(N3CCCc4cc(-c5cnn(C)c5)c(C(F)F)cc43)nn2C2CCN(C(=O)CN3CCOC(CCNc4cccc5c4C(=O)N(C4CCC(=O)NC4=O)C5=O)C3)CC2)C1 (stereo not shown) [P-172] .
**A:** 20 to 50%

**Q:** Please report the recorded inhibition at 0.01 µM for CC(=O)N1CCc2c(c(N3CCCc4cc(-c5cnn(C)c5)c(C(F)F)cc43)nn2C2CCN(CCCNC(=O)CNc3cccc4c3C(=O)N(C3CCC(=O)NC3=O)C4=O)CC2)C1 (stereo not shown) [P-124] .
**A:** < 20%

**Q:** Please report the recorded inhibition at 0.01 µM for CNC(=O)N1CCc2c(c(N3CCCc4cc(-c5cnn(C)c5)c(C(F)F)cc43)nn2C2CCN(C(=O)CCOCCOCCC(=O)N[C@H](C(=O)N3C[C@H](O)C[C@H]3C(=O)NCc3ccc(-c4scnc4C)cc3)C(C)(C)C)CC2)C1 [P-067] .
**A:** < 20%

**Q:** Please report the recorded inhibition at 0.01 µM for CNC(=O)N1CCc2c(c(N3CCCc4cc(-c5cnn(C)c5)c(C(F)F)cc43)nn2C2CCN(C(=O)CCCCCCNc3ccc4c(c3)n(C)c(=O)n4C3CCC(=O)NC3=O)CC2)C1 (stereo not shown) [P-129] .
**A:** > 80%
